Target: T1, human CD137 displayed on yeast cells (human, UniProt Q07011 24-186, limits assumed)
T1 construct: Yeast cells displaying human CD137 on their surface; also called human CD137 on the cell surface
Test: flow cytometry on yeast cells displaying human CD137, PE anti-human Fc (column head prints EC50 over KD (nM))
attribute-measured: Kd (nM)
Express your answer in nM, writing the number without its unit.

Req: Quick one: Kd of TY22599 (antibody, V domains shown, Full IgG4 from mammalian cells; peptide fused to the N-terminus of the light chain of TY21242) VH: EVQLVESGGGLVQPGGSLRLSCAASGFSLSTGGVGVGWIRQAPGKGLEWLALIDWADDKYYSPSLKSRLTISRDNSKNTLYLQLNSLRAEDTAVYYCARGGSDTVIGDWFAYWGQGTLVTVSS VL: EVGSYTDNYDYCPRLRRKCYHSGRSAGGGGSPLGLAGSGGSDIQLTQSPSSLSASVGDRVTITCRASQSIGSYLAWYQQKPGKAPKLLIYDASNLETGVPSRFSGSGSGTDFTLTISSLQPEDFATYYCQQGYYLWTFGQGTKVEIK ?
Resp: 98.1

Req: For the binder TY22598 (antibody, V domains shown, Full IgG4 from mammalian cells; peptide fused to the N-terminus of the light chain of TY21242) VH: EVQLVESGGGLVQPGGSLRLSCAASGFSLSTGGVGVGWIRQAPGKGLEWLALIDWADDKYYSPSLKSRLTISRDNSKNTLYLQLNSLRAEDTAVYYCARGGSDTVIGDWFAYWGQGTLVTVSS VL: EVGSYSNNFASCLWRHRSCADSGRSAGGGGSPLGLAGSGGSDIQLTQSPSSLSASVGDRVTITCRASQSIGSYLAWYQQKPGKAPKLLIYDASNLETGVPSRFSGSGSGTDFTLTISSLQPEDFATYYCQQGYYLWTFGQGTKVEIK , what Kd is on record?
Resp: 8.61

Req: I am curious: what Kd value has been reported for TY22596 (antibody, V domains shown, Full IgG4 from mammalian cells; peptide fused to the N-terminus of the light chain of TY21242) VH: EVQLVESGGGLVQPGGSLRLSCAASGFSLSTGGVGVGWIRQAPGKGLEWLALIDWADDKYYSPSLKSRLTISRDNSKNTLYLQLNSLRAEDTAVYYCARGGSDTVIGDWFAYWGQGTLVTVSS VL: EVGSYYHDYDDCRVLPRRCFNSGRSAGGGGSPLGLAGSGGSDIQLTQSPSSLSASVGDRVTITCRASQSIGSYLAWYQQKPGKAPKLLIYDASNLETGVPSRFSGSGSGTDFTLTISSLQPEDFATYYCQQGYYLWTFGQGTKVEIK ?
Resp: 5.86

Req: Fill blank: measured Kd of the binder TY22594 (antibody, V domains shown, Full IgG4 from mammalian cells; peptide fused to the N-terminus of the light chain of TY21242) VH: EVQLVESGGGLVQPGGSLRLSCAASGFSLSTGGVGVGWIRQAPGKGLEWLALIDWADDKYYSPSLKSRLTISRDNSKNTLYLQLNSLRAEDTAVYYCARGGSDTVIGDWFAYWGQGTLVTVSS VL: EVGSYDTDYDFCPILRHRCDSSGRSAGGGGSPLGLAGSGGSDIQLTQSPSSLSASVGDRVTITCRASQSIGSYLAWYQQKPGKAPKLLIYDASNLETGVPSRFSGSGSGTDFTLTISSLQPEDFATYYCQQGYYLWTFGQGTKVEIK is ____.
Resp: 23.6
